Tested on: velvetleaf
protocolDescription: Test Example 1: foliar treatment of field
Assay type: in vivo, Abutilon theophrasti
statedConditions: foliar spray, 125 g/ha, plants grown 14 days before, examined 16 days after application
measuredParameter: herbicidal activity (growth of velvetleaf)

> print(dat)
                                   molecule                 result
1  COC(=O)C(CC(C)C)NC(=O)C1(Oc2cc(-n3c(=O)cc(C(F)(F)F)n(C)c3=O)c(F)cc2Cl)CC1 (centres unmarked)  completely controlled
2  CCOC(=O)C1(Oc2cc(-n3c(=O)cc(C(F)(F)F)n(C)c3=O)c(F)cc2Cl)CC1  completely controlled
3  C=CCOC(=O)C1(Oc2cc(-n3c(=O)cc(C(F)(F)F)n(C)c3=O)c(F)cc2Cl)CC1  completely controlled
4  COC(=O)C1(Oc2cc(-n3c(=O)cc(C(F)(F)F)n(C)c3=O)c(F)cc2Cl)CC1  completely controlled

For the molecule CSC(=O)C1(Oc2cc(-n3c(=O)cc(C(F)(F)F)n(C)c3=O)c(F)cc2Cl)CC1 , what herbicidal activity (growth of velvetleaf) is on record?
completely controlled
